The measured values listed here are drawn from patent US20200385371A1.

For each record, write down the corresponding Kd.
# TEST SYSTEM: WDR5 (Homo sapiens, UniProt P61964)
# ASSAY PROCEDURE: Surface Plasmon Resonance (SPR) assay
# Format: binding
# Design: Full length WDR5 with an N-terminal His tag and C-terminal AviTag; His tag (N); made in house; host or cells: E. coli
# CONDITION INFO: read-out: SPR Kd
The answer is to be given in nM; state only the numeric part.

Query: Recorded Kd of C[C@@H]1CN(c2cc(F)c(-c3cnc4c(c3)OCCO4)c(F)c2NC(=O)c2c[nH]c(=O)cc2C(F)(F)F)C[C@H](C)N1C [Example 73] , please.
Reply: 1.26

Query: Recorded Kd of C[C@@H]1CN(c2cc(F)c(-c3ccnc(N4CCOCC4)c3)c(F)c2NC(=O)c2c[nH]c(=O)cc2C(F)(F)F)C[C@H](C)N1C [Example 69] , please.
Reply: 3.01

Query: Recorded Kd of C[C@@H]1CN(c2cc(F)c(-c3cnc(N4CCOCC4)nc3)c(F)c2NC(=O)c2ccc(F)cc2C(F)F)C[C@H](C)N1C [Example 31] , please.
Reply: 1.04

###

# TEST SYSTEM: WDR5 (Homo sapiens)
# ASSAY PROCEDURE: Surface Plasmon Resonance (SPR) assay
# Type: binding
# Parameters: Full length WDR5 with an N-terminal His tag and C-terminal AviTag; His tag (N); made in house; host or cells: E. coli
# CONDITION INFO: read-out: SPR Kd
REPORTED PROPERTY: pKd
pKd (log units): -log10 of the concentration in mol/L.

Query: Recorded pKd of "CC(C)OC(=O)N1CC=C(c2c(F)cc(N3CCN(C)[C@@H](C)C3)c(NC(=O)c3c[nH]c(=O)cc3C(F)(F)F)c2F)CC1" , please.
Reply: 8.80

Query: Recorded pKd of "C[C@@H]1CN(c2ncc(-c3c(F)cc(N4C[C@@H](C)N(C)[C@@H](C)C4)c(NC(=O)c4ccc(F)cc4C(F)F)c3F)cn2)C[C@H](C)O1" , please.
Reply: 8.59

Query: Recorded pKd of "C[C@H]1CN(c2ncc(-c3c(F)cc(N4CCN(C)[C@@H](C)C4)c(NC(=O)c4c[nH]c(=O)cc4C(F)F)c3F)cn2)CCO1" , please.
Reply: 9.25

Query: Recorded pKd of "C[C@@H]1CN(c2cc(F)c(-c3cnc(N4CCO[C@@H](C)C4)nc3)c(F)c2NC(=O)c2ccc(F)cc2C(F)(F)F)C[C@H](C)N1C" , please.
Reply: 8.91

Query: Recorded pKd of "C[C@@H]1CN(c2nc(-c3c(F)cc(N4CCN(C)[C@@H](C)C4)c(NC(=O)c4c[nH]c(=O)cc4C(F)(F)F)c3F)cs2)C[C@H](C)O1" , please.
Reply: 8.29

Query: Recorded pKd of "C[C@@H]1CN(c2cc(F)c(-c3cnc(N4CCOCC4)nc3)c(F)c2NC(=O)c2c[nH]c(=O)cc2C(F)(F)F)C[C@H](C)N1C" , please.
Reply: 8.43

###

# System: MV4-11 cells
# ASSAY PROCEDURE: Cell proliferation assay (ATPlite)
# Type: cell-based
# CONDITION INFO: Homo sapiens, 120 h; MV4-11 cells, five days; read-out: GI MV411 EC50
REPORTED PROPERTY: pEC50
pEC50 (log units): -log10 of the concentration in mol/L.

Query: Lab note: need pEC50 for "C[C@@H]1CN(c2ncc(-c3c(F)cc(N4CCN(C)[C@@H](C)C4)c(NC(=O)c4c[nH]c(=O)cc4C(F)(F)F)c3F)cn2)C[C@H](C)O1" on MV4-11 cells, anyone have it?
Reply: 7.62

Query: Lab note: need pEC50 for "C[C@@H]1CN(c2ncc(-c3c(F)cc(N4CCN(C)[C@@H](C)C4)c(NC(=O)c4cn(C)c(=O)cc4C(F)F)c3F)cn2)C[C@@H](C)O1" on MV4-11 cells, anyone have it?
Reply: 6.68

Query: Lab note: need pEC50 for "COc1cnc(N2CC=C(c3c(F)cc(N4CCN(C)[C@@H](C)C4)c(NC(=O)c4c[nH]c(=O)cc4C(F)F)c3F)CC2)nc1" on MV4-11 cells, anyone have it?
Reply: 6.57

Query: Lab note: need pEC50 for "C[C@H]1CN(c2cc(F)c(-c3ccc(N4CCOCC4)nc3)c(F)c2NC(=O)c2ccc(F)cc2C(F)(F)F)CCN1C" on MV4-11 cells, anyone have it?
Reply: 6.72

Query: Lab note: need pEC50 for "C[C@@H]1CN(c2nc(-c3c(F)cc(N4CCN(C)[C@@H](C)C4)c(NC(=O)c4c[nH]c(=O)cc4C(F)F)c3F)cs2)C[C@H](C)O1" on MV4-11 cells, anyone have it?
Reply: 6.88

Query: Lab note: need pEC50 for "COc1cc(N2CCC=C(c3c(F)cc(N4CCN(C)[C@@H](C)C4)c(NC(=O)c4c[nH]c(=O)cc4C(F)(F)F)c3F)C2)ncn1" on MV4-11 cells, anyone have it?
Reply: 6.45

Query: Lab note: need pEC50 for "C[C@@H]1CN(c2cc(F)c(-c3ccc(N4CCO[C@@H](C)C4)nc3)c(F)c2NC(=O)c2c[nH]c(=O)cc2C(F)(F)F)C[C@H](C)N1C" on MV4-11 cells, anyone have it?
Reply: 7.15

Query: Lab note: need pEC50 for "COc1cnc(N2CCC=C(c3c(F)cc(N4C[C@@H](C)N(C)[C@@H](C)C4)c(NC(=O)c4c[nH]c(=O)cc4C(F)(F)F)c3F)C2)nc1" on MV4-11 cells, anyone have it?
Reply: 6.96
